- Target or test system: UniProt:Q9Y2T5
- Assay comment: Antagonist activity at GPR52 (unknown origin) expressed in HEK293 cells assessed as inhibition of WO459-induced cAMP accumulation preincubated for 15 mins followed by WO459 addition and measured after 30 mins by LANCE Ultra cAMP kit based microplate reader analysis
- Type: functional, cell-based
- Run parameters: read-out: IC50
Assay readout: IC50 (µM)

# count of solved cases: 4
O=C(/C=C/CCc1ccccc1)c1ccc(-c2ccccc2)cc1 = 7.64
COc1ccc(C(=O)/C=C/CCc2ccccc2)cc1 = 3.87
Cc1cccc(C)c1C(=O)/C=C/CCc1ccccc1 = 2.82
O=C(/C=C/CCc1ccccc1Br)c1ccccc1 = 1.64

a: O=C(/C=C/CCc1ccccc1)c1cccc(-c2ccccc2)c1
b: Cc1ccc(C(=O)/C=C/CCc2ccccc2)cc1
Could you check which of a and b has a smaller value for IC50? Answer = label. b

---

- Target or test system: G-protein coupled receptor 52 (Homo sapiens)
- Sequence (Q9Y2T5 whole entry): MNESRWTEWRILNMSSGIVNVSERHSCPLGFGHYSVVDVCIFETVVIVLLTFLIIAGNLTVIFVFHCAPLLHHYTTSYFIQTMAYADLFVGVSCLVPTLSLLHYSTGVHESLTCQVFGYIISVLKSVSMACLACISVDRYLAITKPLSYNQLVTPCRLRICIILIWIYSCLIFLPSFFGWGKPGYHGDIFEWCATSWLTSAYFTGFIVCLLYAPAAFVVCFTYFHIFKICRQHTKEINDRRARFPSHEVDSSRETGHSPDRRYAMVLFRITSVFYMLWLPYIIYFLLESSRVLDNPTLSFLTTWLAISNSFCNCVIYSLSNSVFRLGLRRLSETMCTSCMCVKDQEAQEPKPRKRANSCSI
- Assay comment: Antagonist activity at GPR52 (unknown origin) expressed in HEK293 cells assessed as inhibition of WO459-induced cAMP accumulation preincubated for 15 mins followed by WO459 addition and measured after 30 mins by LANCE Ultra cAMP kit based microplate reader analysis
- Format: functional, cell-based
- Run parameters: read-out: IC50
pIC50: −log10 of the molar value.
Assay readout: pIC50

O=C(/C=C/CCc1ccccc1)c1cccc(F)c1 = 5.63
O=C(/C=C/CCc1ccccc1)c1cccc2ccccc12 = 5.48
COc1cccc(C(=O)/C=C/CCc2ccccc2)c1 = 5.83
Cc1ccccc1C(=O)/C=C/CCc1ccccc1 = 5.58
O=C(/C=C/CCc1ccccc1)c1ccccn1 = 5.74

A: Cc1cccc(C(=O)/C=C/CCc2ccccc2)c1
B: O=C(/C=C/CCc1ccccc1)c1ccccc1-c1ccccc1
Could you check which of A and B has a smaller value for pIC50? Answer = label. A
(A: 5.59, B: 5.91)

---

- Target or test system: G-protein coupled receptor 52 (Homo sapiens)
- Assay comment: Antagonist activity at GPR52 (unknown origin) expressed in HEK293 cells assessed as inhibition of WO459-induced cAMP accumulation preincubated for 15 mins followed by WO459 addition and measured after 30 mins by LANCE Ultra cAMP kit based microplate reader analysis
- Assay type: functional, cell-based
- Run parameters: read-out: IC50
Assay readout: IC50 (nM)

O=C(/C=C/CCc1ccccc1)c1ccoc1 = 1520
COc1ccccc1C(=O)/C=C/CCc1ccccc1 = 1720
O=C(/C=C/CCc1ccccc1)c1ccco1 = 630
O=C(/C=C/CCc1ccc(Br)cc1)c1ccccc1 = 1810
O=C(/C=C/CCc1ccccc1)c1ccccc1F = 1760

a: O=C(/C=C/CCc1ccccc1)CCc1ccccc1
b: O=C(/C=C/CCc1ccccc1)c1ccc2ccccc2c1
Please tell me which of the two, a or b , has the higher reported IC50 value. Answer = label. a
